- ASSAY_DETAILS: Inhibition of human DNA polymerase alpha
Provide the reported IC50 of each item.
One number for each entry, in µM.

                         compound_structure  readout_units  readout_number
0  COCc1cc2cc(OC)c(OC)cc2c(-c2ccc3c(c2)OCO3)c1C=O             µM             3.5

// next entry
Name the reported IC50 value associated with the compound COc1cc2cc3c(c(-c4ccc5c(c4)OCO5)c2cc1OC)COC3=O 5.5

---

Provide the reported IC50 of each item.
- Tested on: Vesicular stomatitis virus
- ASSAY_DETAILS: Antiviral activity against VSV infected in BHK cells assessed as inhibition of plaque formation
- Type: functional, organism-based
Give bare numbers, in nM.

>>> print(df.to_string())
                                   molecule             subject_of_test  readout_number
0  COc1cc([C@@H]2c3cc4c(cc3[C@@H](OC)[C@H]3COC(=O)[C@@H]23)OCO4)cc(OC)c1OC  Vesicular stomatitis virus            2300
1  COc1cc([C@@H]2c3cc4c(cc3[C@H](OC)[C@H]3COC(=O)[C@H]23)OCO4)cc(OC)c1OC  Vesicular stomatitis virus             930
2  COC(=O)[C@@H]1C(CO)=Cc2cc3c(cc2[C@H]1c1cc(OC)c(OC)c(OC)c1)OCO3  Vesicular stomatitis virus             460

// next entry
Give recorded IC50 with Vesicular stomatitis virus for the following molecule: COc1cc([C@@H]2c3cc4c(cc3[C@H](O)[C@H]3COC(=O)[C@H]23)OCO4)cc(OC)c1OC [PODOFILOX] 100

---

- Tested on: Human immunodeficiency virus 1
- ASSAY_DETAILS: Antiviral activity against HIV1 infected in human MT4 cells
- Assay type: functional, organism-based
- ASSAY_SETUP: Human immunodeficiency virus 1, MT4
Provide the reported EC50 of each item.
One number for each entry, in µM.

Recorded results for 2 compounds are shown here.
>>> print(df.to_string())
                         compound_structure  readout_number
0  COc1ccc([C@H]2c3c(cc4c(c3OC)OCO4)C[C@H]3CSC[C@@H]32)cc1OC             3.3
1  COc1c2c(cc3c1[C@H](c1ccc(OC(=O)c4ccccc4)c(O)c1)[C@H]1C(=O)OC[C@@H]1C3)OCO2            5.22

Look up EC50 for the entries below, preserving their order.
1. COc1cc([C@H]2c3c(cc4c(c3OC)OCO4)C[C@H]3CSC[C@@H]32)cc(OC)c1OC
2. COc1cc([C@H]2c3c(cc(OC)c(OC)c3OC)C[C@@H](C)[C@@H]2C)cc(OC)c1OC
3. COc1cc([C@H]2c3c(cc(OC)c(OC)c3OC)C[C@H]3CSC[C@@H]32)cc(OC)c1OC

[5.1, 3.2, 0.8]

---

- ASSAY_DETAILS: Therapeutic index, ratio of inhibition of human H9 cells to EC50 for HIV1
- Format: cell-based
- ASSAY_SETUP: read-out: TI
TEST_READOUT: selectivity ratio
Answers are plain numbers.

>>> print(df.to_string())
                                   compound  readout_number
0  COc1cc(C[C@H]2C(=O)OC[C@@H]2Cc2ccc(OC)c(OC)c2)ccc1O [ARCTIGENIN]               9

// next entry
Name the reported selectivity ratio value associated with the compound COc1ccc(C[C@H]2COC(=O)[C@@H]2Cc2ccc(O)c(O)c2)cc1OC 9
